Test system: A549
ASSAY: Cytotoxicity against human A549 cells after 72 hrs by MTT colorimetric assay
Format: functional, cell-based
CONDITIONS_USED: A549, 72 h
Counter-ions that a name gives are not always drawn.
Recorded measurements of IC50, one per entry

Sample answers from the record:
COMPOUND	IC50
[O-]c1cc2c3c(c1)c1cc4c(cc1c[n+]3CC2)OCO4	> 10 µM
CO[C@@H]1C=C[C@@]23c4cc5c(cc4[C@@H](O)N(C[C@H]2O)[C@H]3C1)OCO5	4 µM
O[C@H]1[C@H]2c3cc4c(cc3CN3CCC(=C[C@@H]1O)[C@H]23)OCO4	4.2 µM
O[C@@H]1CC=C2CCN3Cc4cc5c(cc4[C@H]1[C@@H]23)OCO5	> 10 µM
COc1cc2c(cc1O)CN1CCC3=CC[C@@H](O)[C@@H]2[C@@H]31	> 10 µM

Please give the measured IC50 for this compound: COc1c2c(cc3c1OCO3)[C@]13C=C[C@H](OC)C[C@H]1N(C2)C[C@@H]3O > 10 µM

Please give the measured IC50 for this compound: COc1cc2c(cc1O)[C@@H]1[C@H](O)[C@@H](O)C=C3CCN(C2)[C@H]31 7.4 µM

Please give the measured IC50 for this compound: COc1cc2c(cc1OC)[C@@H]1[C@H](O)[C@@H](OC)C=C3CCN(C2)[C@H]31 > 10 µM

Please give the measured IC50 for this compound: CO[C@@H]1C=C[C@@]23c4cc5c(cc4CN(C[C@@H]2O)[C@H]3C1)OCO5 [(+)-HAEMANTHAMINE] 4.5 µM

Please give the measured IC50 for this compound: COc1c2c(cc3c1OCO3)[C@@]13CCN(C2)[C@@H]1CC=C[C@H]3O > 10 µM

Please give the measured IC50 for this compound: CC(O)CC(=O)O[C@H]1C[C@H]2CCN(C)[C@H]2[C@@H]2c3cc4c(cc3C(=O)O[C@H]21)OCO4 (some centres undefined) > 10 µM

Please give the measured IC50 for this compound: CO[C@@H]1C=C[C@@]23c4cc5c(cc4CO[C@]2(O)CN(C)[C@H]3C1)OCO5 > 10 µM

Please give the measured IC50 for this compound: COC1C=C[C@@]23CCN(Cc4cc5c(cc42)OCO5)[C@@H]3C1 (some centres undefined) > 10 µM

Please give the measured IC50 for this compound: CN1CC[C@@H]2C[C@H](O)[C@@H]3OC(=O)c4cc5c(cc4[C@H]3[C@@H]21)OCO5 [CLIVONINE HYDROCHLORIDE] > 10 µM
